Assay: NOVARTIS: Cytotoxicity against human hepatocellular carcinoma cell line (Huh7)
Assay type: toxicity, cell-based, Huh-7
Conditions: Huh7 cells (hepatocellular carcinoma cell line)
measuredEndpoint: log10 of CC50 (log10 of the value in µM)
Short version: log10 scale, CC50, µM.

Some solved cases for reference:
# compoundStructureString, resultValue
measured = [
    ("COc1ccc(OC)c(-c2ccc(O)c(CNCCCN(C)C)c2)c1", 1.33),
    ("Cc1ccc(C)n1-c1ccc(N(C)C)cc1", 1.71),
    ("CCN(CC)S(=O)(=O)c1ccc2[nH]cc(C(=O)NCCCN3CCN(c4ccc(OC)cc4)CC3)c(=O)c2c1", 1.71),
    ("COc1ccc2nc(C)cc(NN=Cc3cccc(OC)c3O)c2c1", 0.79),
    ("COc1cc(C=NNc2nc3ccccc3[nH]2)ccc1O", 1.63),
]

Now consider the entry below.
Lookup result for C[C@H](Nc1cncc(-c2ccc(Cl)cc2)n1)c1ccccc1 ; measured log10 of CC50: 1.85

This collection of values is drawn from ChEMBL document CHEMBL1156829.
